# assay: Cycloheximide Counterscreen for Small Molecule Inhibitors of Shiga Toxin; note: read at 38.3 µM for the half of the compounds with a filed dose; 0% is about no effect
# experimental_setup: cell reporter, cycloheximide protein synthesis inhibition counterscreen; active compounds read high
Screen size: about 300,000 compounds; about 37,000 (12%) were called active. The full list was thinned out, with actives kept by preference.
readout_kind: max response (%)

1. CC1(C)SC2C(NC(=O)COc3ccccc3)C(=O)N2C1C(=O)O (stereo not given) ... -0.647
2. Cc1ccc(S(=O)(=O)NCCC(=O)Nc2cccc(S(N)(=O)=O)c2)cc1C ... -4.85
3. Cc1ccc(S(=O)(=O)N(Cc2ccccc2)c2ccccn2)cc1[N+](=O)[O-] ... 2.38
4. CC(C)CC(=O)NC(=S)NNC(=O)c1cccc([N+](=O)[O-])c1 ... 4.5
5. COc1ccc(C2=NS(=O)(=O)N(C)C(C(=O)N(C)Cc3ccccc3)=C2)cc1 ... -2.93
6. Cc1ccnc(NC(=O)CCNS(=O)(=O)c2ccc(C)c(C)c2)c1 ... 47.8
7. O=C(Nc1ccccc1C(F)(F)F)c1cc(-c2ccc(O)cc2)on1 ... 37.9
8. Cc1ccc(S(=O)(=O)NCCC(=O)Nc2ccc(C)c(Cl)c2)cc1C ... -4.03
9. CCN1CCN(c2cc3nc(C)n(Cc4ccccc4)c(=O)c3cc2NC(=O)c2ccccc2F)CC1 ... -3.92
10. COC(=O)c1sccc1NN1C(=O)c2ccccc2C1=O ... 28.6

###

Examples of compounds with documented max response follow.
# assay: Cycloheximide Counterscreen for Small Molecule Inhibitors of Shiga Toxin; note: read at 38.3 µM for the half of the compounds with a filed dose; 0% is about no effect
# experimental_setup: cell reporter, cycloheximide protein synthesis inhibition counterscreen; active compounds read high
Among all 300,000 compounds or so, about 37,000 (12%) were called active. This excerpt belongs to a sample that is enriched for actives.
readout_kind: max response (%)

1) c1c2c(cc3sc(N4CCCCC4)nc13)OCCO2 ... 25.6
2) Cc1ccc(S(=O)(=O)N2CCC(=O)N([C@H](COCc3ccccc3)Cc3ccccc3)CC2)cc1 ... 7.08
3) Cc1nc(-c2ccccc2)sc1-c1nnc(C2CC2)o1 ... 38.7
4) Cc1nc(-c2ccccc2)sc1-c1nc(-c2ccccc2)ncc1S(=O)(=O)c1ccccc1 ... 1.01
5) CCCCCc1c(C)nc(N2CCN(Cc3ccc4c(c3)OCO4)CC2)[nH]c1=O ... -0.993
6) CSc1ccc(CN2C(=O)NC3(CCCCCC3)C2=O)cc1 ... -3.95
7) Cc1ccc(NS(=O)(=O)c2c(C)[nH]c(C)c2C(=O)N2CCCCC2)c(C)c1 ... 18
8) CCc1nnc(NC(=O)CSCc2cc(=O)n3cc(C)sc3n2)s1 ... 1.44
9) Cc1ccc2c(c1)C1CN(C)CCC1N2S(=O)(=O)c1ccc(Oc2ccc([N+](=O)[O-])cc2)cc1 (stereo unspecified) ... -3.12
10) Cc1nc(N2CCCCC2)sc1C=O ... -2.42
11) COc1cc(OC)c(NS(=O)(=O)c2cn(C)cn2)cc1Cl ... -0.545

###

# assay: Cycloheximide Counterscreen for Small Molecule Inhibitors of Shiga Toxin; note: read at 38.3 µM for the half of the compounds with a filed dose; 0% is about no effect
# experimental_setup: cell reporter, cycloheximide protein synthesis inhibition counterscreen; active compounds read high
Among all 300,000 compounds or so, about 37,000 (12%) were called active. Only a selection was taken, and actives are over-represented in it overall.
readout_kind: max response (%)

1) CCCn1c(SCC(=O)c2ccc3c(c2)OCCO3)nnc1C(C)C ... 15.2
2) COc1cc(CC(=O)N2CCC(n3nccc3NC(=O)C3CC3)CC2)cc(OC)c1OC ... -1.39
3) CCc1ccc(N(C(=O)c2csnn2)C(C(=O)NC2CCCCC2)c2ccncc2)cc1 (stereo not given) ... 8.95
4) CNc1[nH]ncc1[N+](=O)[O-] ... 40.2
5) O=C(NCCc1ccccc1)c1ccc(NC2=NC3CS(=O)(=O)CC3S2)cc1 (stereo not given) ... 3.38
6) CCn1c2ccccc2c2cc(NC(=O)C/C(C)=N/NC(=O)c3ccccc3N)ccc21 ... 39.3
7) CC1CCN(c2c(NCc3ccc(C(=O)NCc4ccccc4)cc3)c(=O)c2=O)CC1 ... 3.3
8) Cc1cc(=O)oc2c3c(cc(OCC(=O)NCCC(=O)N[C@@H](C)C(=O)O)c12)OC(C)(C)CC3 ... -1.18
9) COc1ccc(-c2csc(NC(=O)COC(=O)c3ccc(Br)o3)n2)cc1 ... 33.7
10) CC1(C)CC(=O)c2c(n(S(=O)(=O)c3ccccc3)c3ccc(NS(=O)(=O)c4ccccc4)cc23)C1 ... -1.24

###

# assay: Cycloheximide Counterscreen for Small Molecule Inhibitors of Shiga Toxin; note: read at 38.3 µM for the half of the compounds with a filed dose; 0% is about no effect
# experimental_setup: cell reporter, cycloheximide protein synthesis inhibition counterscreen; active compounds read high
Hit rate of the full screen: of about 300,000 compounds, about 37,000 (12%) were called active. This is one part of a sample in which actives are shown more often than they occur.
readout_kind: max response (%)

1) CCc1ccc(Nc2nnc(SCC(=O)c3ccc4c(c3)NC(=O)CO4)s2)cc1 ... 20.5
2) S=c1[nH]nc(-c2ccco2)n1/N=C/c1ccccc1 ... -1.31
3) CCCc1nn(C)c2c(=O)[nH]c(-c3cc(S(N)(=O)=O)ccc3OCC)nc12 ... -4.06
4) O=c1c2ccccc2nc(-c2ccco2)n1-c1ccc(Br)cn1 ... -3.55
5) Cn1c(=NC(=O)c2cnccn2)sc2ccccc21 ... 26
6) O=C(Nc1ccc(Br)cc1F)C1CC(=O)N(C2CCCCC2)C1 (configuration not stated) ... -2.46
7) Cc1ccc(S(=O)(=O)N(CCCN(C)C)Cc2ccc3c(c2)OCO3)cc1 ... 1.74
8) OCC1(Cc2ccccc2C(F)(F)F)CCN(Cc2ccncc2)CC1 ... 0.237
9) COC(=O)c1cccc(N(C(=O)c2ccco2)C(C(=O)NC2CCCC2)c2ccco2)c1 (configuration not stated) ... -1.82
10) O=C(O)CCN=C1CCc2ccccc2N1 ... -2.89
11) CC1CCN(S(=O)(=O)c2ccc(NC(=O)C3CC(=O)N(c4ccccc4)C3)cc2)CC1 (configuration not stated) ... -2.49
12) O=[N+]([O-])c1cc(Br)c(O)c(/C=N/Nc2nc3ccccc3s2)c1 ... 26
13) Cc1ccc(C2CN(C)CC2C(=O)c2ccc(F)cc2)cc1 (configuration not stated) ... -3.61
14) O=c1ccc(-c2ccc(S(=O)(=O)Nc3ccccc3)o2)n[nH]1 ... -12.6
15) Cn1c(-c2ccco2)nc2cc3ccccc3cc21 ... 16.7
16) CC(C)CCn1c(=O)c2c(nc3n2CCCN3Cc2ccccc2)n(C)c1=O ... -1.82
17) COc1cc(OC)nc(NC(=O)CCl)n1 ... -2.63
18) COc1ccc(Cc2cc(-c3ccc(F)cc3)n[nH]c2=O)cc1 ... 16.2
19) CC(=O)N1Cc2ccccc2CC1C(=O)O (configuration not stated) ... -1.38
20) COc1ccccc1Nc1cc(C(=O)NCCCN(C)C2CCCCC2)c2ccccc2n1 ... -15.5
21) CCc1nc2cccnc2n1-c1ccc(C(=O)O)cc1 ... -1.63
22) COc1ccc2c(c1)C(SCC(=O)NCc1ccccc1)CC(C)(C)O2 (configuration not stated) ... -3.58
23) O=C(CN1CCCCCC1)Nc1ccc(Br)cc1Br ... 15.8
24) CCSc1nc2sc3c(c2c(=O)n1-c1ccc(C)cc1)CCN(C)C3 ... -1.97
25) N#Cc1c(N2CCCCC2)nc(N)c2c(N)nc(SCC(=O)O)cc12 ... -0.559
26) O=C(CCC(=O)N1CCCC1)Nc1ccc([N+](=O)[O-])cc1 ... -2.89
27) CC(=O)Cc1nsc(NC(=O)c2ccc(Cl)cc2Cl)n1 ... 27.8
28) O=C1CCC(C(=O)N2CCC(O)(c3ccccc3)CC2)CN1CCc1ccccc1 (configuration not stated) ... -0.943
29) COc1ccc(C(=O)C2CN(C)CC2C(=O)c2ccc(OC)cc2)cc1 (configuration not stated) ... 19
30) CCC1CCCCN1C(=S)Nc1ccc(C(C)=O)cc1 (configuration not stated) ... 8.58
31) CCOc1ccc2[nH]c3nc(SCC(=O)NC4CCCC4)nnc3c2c1 ... -2.15
32) N#CC1=C(N)Oc2c(sc3ccccc23)C1c1ccco1 (configuration not stated) ... 28.9
33) Cc1cc(C)c2c3c(sc2n1)C(c1ccccc1)C(C#N)=C(N)O3 (configuration not stated) ... -1.32
34) CCc1ccc(NC(=O)CN2CCC(C(=O)c3ccc(OC)cc3)CC2)cc1 ... -4.07
35) Cc1c(C)c2c(OCC(=O)NCCCO)cc3c(c2oc1=O)CCC(C)(C)O3 ... 0.89
36) Cn1c(=NC(=O)CSCC(=O)N2CCCCC2)sc2ccccc21 ... 2.51
37) O=C(COc1ccc(-c2ccccc2)cc1)NN=C1CCCC1 ... -1.28
38) O=C(COc1ccccc1)Nc1ccc(C(=O)N2CCCC2)cc1 ... 37.5
39) Cn1c(=NC(=O)CSCC(=O)N2CCOCC2)sc2ccccc21 ... 11
40) CCOc1ccc(C(=O)NCCCN2CCCC2=O)cc1 ... 16.9
41) CCC1CCCCN1C(=S)Nc1ccc(S(=O)(=O)Nc2ncccn2)cc1 (configuration not stated) ... -2.13
42) COc1ccc(Cc2nnc(SC)[nH]c2=O)cc1 ... 4.91
43) CCCCN(CCCC)CCCNC(=O)CN1C(=O)COc2ccc(S(=O)(=O)N3CCC(C)CC3)cc21 ... -3.42
44) CC(=O)Cc1nsc(NC(=O)c2csc3c2CCCC3)n1 ... 16.6
45) COCCCn1c(SCC(=O)NC2CCCC2)nnc1-c1ccccc1 ... -2.3
46) C/C(=N\NC(=O)OC(C)(C)C)c1ccc[nH]1 ... 42.4
47) c1ccc2sc(NN=C3CCCC3)nc2c1 ... 38.7
